molecular target: Calpain-1; test: fluorescence-based enzyme inhibition assay
Sequence (P07384 whole entry, chain 1 of 2): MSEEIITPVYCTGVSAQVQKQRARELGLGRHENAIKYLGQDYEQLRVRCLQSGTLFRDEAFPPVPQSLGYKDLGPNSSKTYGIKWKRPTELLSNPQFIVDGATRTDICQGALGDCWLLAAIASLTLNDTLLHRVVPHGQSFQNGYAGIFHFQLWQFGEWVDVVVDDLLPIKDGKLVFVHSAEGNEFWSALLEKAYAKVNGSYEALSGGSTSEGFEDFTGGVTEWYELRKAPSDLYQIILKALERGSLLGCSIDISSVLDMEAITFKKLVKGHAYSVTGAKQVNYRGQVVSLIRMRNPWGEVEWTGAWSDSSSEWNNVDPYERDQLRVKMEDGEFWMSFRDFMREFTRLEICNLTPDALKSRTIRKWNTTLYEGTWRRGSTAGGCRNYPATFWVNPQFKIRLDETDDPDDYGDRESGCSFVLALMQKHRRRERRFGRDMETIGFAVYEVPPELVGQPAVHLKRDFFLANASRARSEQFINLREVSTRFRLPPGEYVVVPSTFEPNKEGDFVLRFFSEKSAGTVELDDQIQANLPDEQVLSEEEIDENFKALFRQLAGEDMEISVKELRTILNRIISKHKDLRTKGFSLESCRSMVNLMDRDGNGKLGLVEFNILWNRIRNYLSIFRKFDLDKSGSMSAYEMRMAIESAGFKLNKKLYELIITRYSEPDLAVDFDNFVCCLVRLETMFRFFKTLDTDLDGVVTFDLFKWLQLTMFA
Sequence (A8K0P1 whole entry, chain 2 of 2, further chain): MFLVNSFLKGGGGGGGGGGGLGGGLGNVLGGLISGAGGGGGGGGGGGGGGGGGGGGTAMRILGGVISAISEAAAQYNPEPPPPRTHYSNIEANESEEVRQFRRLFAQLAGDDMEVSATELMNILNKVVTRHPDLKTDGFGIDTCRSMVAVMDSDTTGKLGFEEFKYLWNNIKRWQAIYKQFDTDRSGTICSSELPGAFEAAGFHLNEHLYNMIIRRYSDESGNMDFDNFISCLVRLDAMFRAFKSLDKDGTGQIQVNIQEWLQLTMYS
Positions of bridges follow the written chain, without caps; N, C: chain ends. Non-standard residues stand in square brackets, D forms with d. No end group written: not given here. alpha,alpha'‑meta‑xylylene = alpha,alpha'-meta-xylylene linker (from a,a'-dibromo-meta-xylene) bridging two cysteines via bis-thioether; Bip = N[C@@H](Cc1ccc(-c2ccccc2)cc1)C(=O)O
quantityKind: Ki (µM)

I = IPPK[Bip]CELLC (linker 6-10 via alpha,alpha'‑meta‑xylylene) [IPPK(bip)CELLC (SEQ ID NO:82)]
II = IPPKXCELLC (Cys6 and Cys10 (i,i+4) linked by alpha,alpha'-meta-xylylene; residue 5 OBn-Y = O-benzyltyrosine) [IPPK(OBn-Y)CELLC (SEQ ID NO:83)]
Identify the item whose Ki is the smaller number: I or II Answer format: the label of the selected item.
I
(I: 9.65 µM, II: 21.3 µM)
